All figures here come from patent US7968724B2.

Test system: LPDE4
protocol-details: Ability to inhibit low affinity LPDE4 (cAMP disappearance) versus competing for high affinity HPDE4 ([H3]rolipram binding)
Assay type: biochemical
property: inhibition of LPDE4 (affinity)

Some compounds with known inhibition of LPDE4 (affinity) results, for comparison:
[
  {
    "chemical-structure": "COc1ccc(C(=Cc2c(Cl)c[n+]([O-])cc2Cl)OC(=O)c2ccccc2)c2c1oc1ccccc12",
    "reported-result": "nanomolar affinity"
  },
  {
    "chemical-structure": "COc1ccc(C(=Cc2c(Cl)cncc2Cl)OC(=O)c2ccccc2)c2c1oc1ccc(NS(C)(=O)=O)cc12",
    "reported-result": "nanomolar affinity"
  },
  {
    "chemical-structure": "COc1ccc(C(=Cc2c(Cl)cncc2Cl)OC(=O)c2ccccc2)c2c1oc1ccc(N)cc12",
    "reported-result": "nanomolar affinity"
  },
  {
    "chemical-structure": "COc1ccc(C(=Cc2c(Cl)cncc2Cl)OC(=O)c2ccccc2)c2c1oc1ccccc12",
    "reported-result": "nanomolar affinity"
  }
]

Provide reported inhibition of LPDE4 (affinity) for each item, in the same order as listed.
1. COc1ccc(C(=Cc2c(Cl)c[n+]([O-])cc2Cl)OC(=O)c2ccccc2)c2c1oc1ccc([N+](=O)[O-])cc12
2. COc1ccc(C(=Cc2c(Cl)cncc2Cl)OC(=O)c2ccccc2)c2c1oc1ccc([N+](=O)[O-])cc12

1: nanomolar affinity; 2: nanomolar affinity
